The following molecules are listed with their measured EC50 values.
assay: inhibitors of SNCA 5'UTR-driven reporter translation, confirmation, H4 neuroglioma cells, luminescence (AID 1988); format: functional, cell-based
Structures can show the parent of a compound that is named as a salt. The source made the active and inactive calls.
Endpoint label: EC50

1) CN(C)c1ccc(-c2nc3ccccc3n2C)cc1
7.88 µM (active)
2) O=Cc1s/c(=N\S(=O)(=O)c2ccccc2)n(CCCCl)c1Cl
9.57 µM (active)
3) CC(=O)c1sc(NC(=O)C2(F)C(F)(F)C(F)(F)C(F)(F)C(F)(F)C2(F)F)nc1C
32.2 µM (active)
4) CCCCCNC(=N)N/N=C/c1c[nH]c2ccc(OC)cc12 [TEGASEROD MALEATE]
7.96 µM (active)
5) Nc1nc2c3ccccc3nc(Cc3ccccc3)n2n1
20.8 µM (active)

----------
biological target: Eukaryotic translation initiation factor 4E (Mus musculus, UniProt P63073); experiment: eIF4E–eIF4G protein interaction inhibitors, dose response, biochemical, TR-FRET (AID 855); type: functional;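 note: potency for disrupting eIF4E binding to eIF4GI seen as loss of FRET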
Sequence (P63073 whole entry): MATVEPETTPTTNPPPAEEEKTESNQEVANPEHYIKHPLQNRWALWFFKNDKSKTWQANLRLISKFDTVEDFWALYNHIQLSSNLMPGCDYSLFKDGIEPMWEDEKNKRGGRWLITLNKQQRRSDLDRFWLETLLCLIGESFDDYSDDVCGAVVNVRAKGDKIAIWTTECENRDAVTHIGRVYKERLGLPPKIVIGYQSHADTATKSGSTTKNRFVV
Calls of active or inactive are those of the source.
The following molecules are listed with their measured IC50 values.
Endpoint label: IC50

1. Sc1nnc(-c2ccco2)n1/N=C/c1ccc(Cl)cc1
> 64 µM (inactive)
2. CN(C)[C@@H]1C(O)=C(C(N)=O)C(=O)[C@@]2(O)C(O)=C3C(=O)c4c(O)cccc4[C@@](C)(O)[C@H]3[C@H](O)[C@@H]12
50 µM (inactive)
3. CCN(CC)C(=O)COC(=O)c1cc(-c2ccco2)nc2ccccc12
50 µM (inactive)
4. Oc1cc(-c2ccccc2)nc2ccccc12
> 64 µM (inactive)

----------
molecular target: Apoptotic protease-activating factor 1 (Homo sapiens, UniProt O14727); assay type: functional
Sequence (O14727 whole entry): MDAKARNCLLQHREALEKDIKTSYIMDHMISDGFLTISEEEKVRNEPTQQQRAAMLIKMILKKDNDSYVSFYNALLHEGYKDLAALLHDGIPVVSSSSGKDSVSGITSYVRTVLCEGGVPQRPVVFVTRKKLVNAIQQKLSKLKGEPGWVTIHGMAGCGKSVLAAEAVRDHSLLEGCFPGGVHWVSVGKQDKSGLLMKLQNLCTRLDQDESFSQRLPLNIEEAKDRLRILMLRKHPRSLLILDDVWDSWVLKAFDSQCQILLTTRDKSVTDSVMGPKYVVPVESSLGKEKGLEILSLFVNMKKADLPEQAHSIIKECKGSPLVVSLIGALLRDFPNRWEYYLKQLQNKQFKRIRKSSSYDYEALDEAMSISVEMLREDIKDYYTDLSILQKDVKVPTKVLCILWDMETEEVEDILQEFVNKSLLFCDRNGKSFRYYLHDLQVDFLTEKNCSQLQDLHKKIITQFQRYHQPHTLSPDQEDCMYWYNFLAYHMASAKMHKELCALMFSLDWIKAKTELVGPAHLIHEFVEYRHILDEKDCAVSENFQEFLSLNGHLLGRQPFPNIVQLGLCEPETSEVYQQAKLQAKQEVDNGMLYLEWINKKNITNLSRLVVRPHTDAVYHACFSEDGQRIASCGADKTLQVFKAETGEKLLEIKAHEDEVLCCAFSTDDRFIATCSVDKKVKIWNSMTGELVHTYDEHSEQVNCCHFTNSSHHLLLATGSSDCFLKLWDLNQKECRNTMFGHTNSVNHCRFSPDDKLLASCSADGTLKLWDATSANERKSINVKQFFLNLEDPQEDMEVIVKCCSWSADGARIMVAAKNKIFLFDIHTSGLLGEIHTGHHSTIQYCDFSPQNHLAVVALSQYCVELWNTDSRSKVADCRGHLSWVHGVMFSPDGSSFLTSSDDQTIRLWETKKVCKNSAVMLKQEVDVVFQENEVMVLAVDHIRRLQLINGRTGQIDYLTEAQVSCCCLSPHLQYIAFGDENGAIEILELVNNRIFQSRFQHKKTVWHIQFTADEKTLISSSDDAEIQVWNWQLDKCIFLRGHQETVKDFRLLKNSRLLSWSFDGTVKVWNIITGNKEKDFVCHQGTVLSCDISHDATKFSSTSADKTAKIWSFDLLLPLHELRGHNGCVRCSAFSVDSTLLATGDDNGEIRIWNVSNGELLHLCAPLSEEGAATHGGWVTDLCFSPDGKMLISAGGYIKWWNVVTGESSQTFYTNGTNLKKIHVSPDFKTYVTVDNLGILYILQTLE
The source made the active and inactive calls.
Endpoint label: IC50

1) CC(=O)Nc1ccc(S(=O)(=O)[N-]C2=C(n3cc[n+](-c4ccccn4)c3)C(=O)c3ccccc3C2=O)cc1
6.71 µM (active)
2) COc1ccccc1N(/N=C1\Sc2ccccc2C1=O)C(C)=O
13.3 µM (active)
3) CCc1cc[n+](C2=C([N-]S(=O)(=O)c3cccs3)C(=O)c3ccccc3C2=O)cc1
11.2 µM (active)
4) CCCCCn1c(N)c(C(=O)NCc2cccs2)c2nc3ccccc3nc21
53.7 µM (active)
5) CC(C)(C)c1ccc(C(=O)NNc2cc(N3CCCCC3)nc(N3CCCCC3)n2)cc1
3.59 µM (active)
6) O=C(NC1=C(NC2CCS(=O)(=O)C2)C(=O)c2ccccc2C1=O)c1ccccc1 (stereo unspecified)
2.1 µM (active)

----------
target: Prothrombin (Bos taurus, UniProt P00735); test: thrombin inhibition, dose response, biochemical, fluorescence polarization, uHTS hits (AID 602369); assay type: functional
The source made the active and inactive calls.
Endpoint label: IC50

1. COC(=O)c1c(NC(=O)c2ccc(S(=O)(=O)N3CC(C)OC(C)C3)cc2)sc2c1CCN(C)C2 (centres undefined)
37.4 µM (active)
2. COc1cc(/C=C2/C(=O)N(c3cccc(Br)c3)N=C2C)cc(OC)c1O
39 µM (active)
3. CSc1ccc(NC(=O)CSc2nc3[nH]c(=O)cc(O)c3s2)cc1
88.3 µM (active)
4. COc1ccc(CNC(=O)c2nnn(CC(=O)Nc3cc(C)cc(C)c3)c2N)cc1
63 µM (active)
